FYI, the data here is from patent US8067589B2.

Would you mind telling me the reported log10 IC50 of each entry?
System tested: human recombinant H-PGDS (Homo sapiens)
Test description: Fluoresecence Intensity h-PGDSTBA Enzyme Assay
Assay conditions: IC50, 5.0 μM PGH2, 2.5 mM L-Glutathione, 10 min preincubation, 4-parameter fit, highest inhibitor concentration typically 1 μM
Answers are given as log10 of IC50 in nM.

Param item = N#Cc1cccc(OCC(c2ccccc2)N2CCC(NC(=O)c3cnc(-c4cccc(F)c4)nc3)CC2)c1 (centres unmarked) ; retrieve measured log10 IC50.
0.48

Find the recorded log10 IC50 belonging to `Cc1ccccc1CN1CCC(NC(=O)c2cnc(-c3cccc(F)c3)nc2)CC1` and report it.
-0.31

Could you tell me which log10 IC50 is on file for `O=C(NC1CCN(Cc2cccc(F)c2)CC1)c1cnc(-c2cccc(F)c2)nc1` ?
-0.47

What value of measured log10 IC50 is listed for `O=C(NC1CN(c2nnnn2-c2ccccc2)C1)c1cnc(-c2cccc(F)c2)nc1` ?
-0.15

Data request, read-out log10 IC50, for `O=C(NC1CCN(CC2CCCCC2)CC1)c1cnc(-c2cccc(F)c2)nc1`
-0.34

Given O=C(NC1CCN(C(COc2ccc(F)cc2)c2ccccc2)CC1)c1cnc(-c2cccc(F)c2)nc1 (centres unmarked) , state its recorded log10 IC50.
1.21

Suppose we examine the molecule `O=C(NC1CCN(CC(F)(F)F)CC1)c1cnc(-c2ccccc2CO)nc1` ; what log10 IC50 value has been reported?
3.00

Query (molecule): Cc1nc(N2CCC(NC(=O)c3cnc(-c4cccc(F)c4)nc3)C2)ncc1S(C)(=O)=O (centres unmarked) ; field requested: log10 IC50
-0.68

###

System tested: human recombinant H-PGDS (Homo sapiens)
Test description: Fluoresecence Intensity h-PGDSTBA Enzyme Assay
Assay conditions: IC50, 5.0 μM PGH2, 2.5 mM L-Glutathione, 10 min preincubation, 4-parameter fit, highest inhibitor concentration typically 1 μM
Note to self: class labels come from recorded IC50, ranges listed here: bottom range = under 2 nM, center range = from 2 nM up to 10 nM, top range = 10 nM and over

Bin? O=C(NC1CCN(Cc2ccc(F)cc2)CC1)c1cnc(-c2cccc(F)c2)nc1 [Example 63]
bottom range

Where would Cc1nc(-c2ccccc2)ncc1C(=O)NC1CCN(CC2CCOCC2)CC1 [Example 7] land among the classes by reported IC50?
top range

Bin? Cc1cc(F)ccc1OCC(c1ccccc1)N1CCC(NC(=O)c2cnc(-c3cccc(F)c3)nc2)CC1 (stereo not drawn) [Example 57]
top range

Note: place this compound into its band. Item: O=C(NC1CCN(C(COc2c(F)cccc2F)c2ccccc2)CC1)c1cnc(-c2cccc(F)c2)nc1 (stereo not drawn) [Example 30]
center range

Which category does the recorded IC50 put COc1cccc(OC)c1CN1CCC(NC(=O)c2cnc(-c3ccccc3)nc2O)CC1 [Example 23] in?
top range

Lab note: sort O=C(NC1CCN(C(COc2cccc(F)c2F)c2ccccc2)CC1)c1cnc(-c2cccc(F)c2)nc1 (stereo not drawn) [Example 53] into the matching IC50 band.
top range

# classify by IC50 band: O=C(NC1CCN(Cc2ccccc2)CC1)c1cnc(-c2ccccc2)nc1 [Example 12]
bottom range

Using the reported IC50, which band applies to CNC(=O)N1CCC(NC(=O)c2cnc(-c3cccc(F)c3)nc2)CC1 [Example 25] ?
bottom range

Input NC(=O)c1cccnc1N1C[C@H](O)[C@H](NC(=O)c2cnc(-c3cccc(F)c3)nc2)C1 (relative stereo) [Example 99] ; output its category
center range

Which IC50 band matches COc1ccc(OCC(c2ccccc2)N2CCC(NC(=O)c3cnc(-c4cccc(F)c4)nc3)CC2)cc1 (stereo not drawn) [Example 58] ?
center range

Which IC50 band matches O=C(NC1CCN(Cc2cccc(Cl)c2)C1=O)c1cnc(-c2cccc(F)c2)nc1 (stereo not drawn) [Example 83] ?
bottom range

Category lookup for the compound O=C(NC1CCN(C(COc2ccccc2)c2ccccc2)CC1)c1cnc(-c2cccc(F)c2)nc1 (stereo not drawn) [Example 38]
center range

Which class is correct for the following compound? O=C(NC1CCN(CC(F)(F)F)CC1)c1cnc(-c2cc(F)ccc2F)nc1 [Example 73]
bottom range

Could you place O=C(NC1CCN(c2cccnn2)CC1)c1cnc(-c2cccc(F)c2)nc1 [Example 26] in its proper category? Many thanks.
bottom range

Exercise: read the entry Cc1nc(-c2ccccc2)ncc1C(=O)NC1CCN(Cc2ccccc2)CC1 [Example 2] and state which class it falls under.
top range

Which class holds COc1cccc(OC)c1CN1CCC(NC(=O)c2cnc(-c3ccccc3)nc2)CC1 [Example 14] ?
bottom range

// return the class label for Cc1nc(-c2ccccc2)ncc1C(=O)NC1CCN(C)CC1 [Example 4]
top range

Which bin, given its IC50, does Nc1nc(-c2ccccc2)ncc1C(=O)NC1CCN(Cc2ccccn2)CC1 [Example 18] occupy?
top range

Consider O=C(NC1CCN(C(COc2cc(F)cc(F)c2)c2ccccc2)CC1)c1cnc(-c2cccc(F)c2)nc1 (stereo not drawn) [Example 34] . To which IC50 class does it belong?
center range

Which bin should I file CCC(CC)N1CCC(NC(=O)c2cnc(-c3cccc(F)c3)nc2)CC1 [Example 68] under?
bottom range

Category of Cc1cc(OCC(c2ccccc2)N2CCC(NC(=O)c3cnc(-c4cccc(F)c4)nc3)CC2)ccc1F (stereo not drawn) [Example 45] :
top range

Which bin should I file CC(=O)c1ccccc1-c1ncc(C(=O)NC2CCN(CC(F)(F)F)CC2)cn1 [Example 119] under?
top range

Hi there! Could you help me figure out the category for CC(C)(C)OC(=O)N1C[C@H](NC(=O)c2cnc(-c3cccc(F)c3)nc2)[C@@H](F)C1 [Example 92] please?
center range

// bin(item) where item = O=C(NC1CCN(Cc2ccccn2)CC1)c1cnc(-c2ccccc2)nc1O [Example 21]
top range

# bin label for Cc1cc(CN2CCC(NC(=O)c3cnc(-c4cccc(F)c4)nc3)C2=O)ccc1F (stereo not drawn) [Example 86]
center range

Textbook exercise: identify the category of the compound given here, CN1CCc2nc(N3CC[C@H](NC(=O)c4cnc(-c5cccc(F)c5)nc4)C3)ncc2C1 [Example 78b] , according to its measured value.
bottom range

Which bin should I file CC(C)N1CCC(NC(=O)c2cnc(-c3ccccc3)nc2N)CC1 [Example 16] under?
top range

Which bin should I file CCc1ccc(OCC(c2ccccc2)N2CCC(NC(=O)c3cnc(-c4cccc(F)c4)nc3)CC2)cc1 (stereo not drawn) [Example 46] under?
top range

State the band of O=C(NC1CCN(Cc2ccccc2F)CC1)c1cnc(-c2cccc(F)c2)nc1 [Example 64]
bottom range

The entry to classify is CCOC(=O)N1CCC(NC(=O)c2cnc(-c3cc(F)ccc3F)nc2)CC1 [Example 74] ; which class holds it?
center range

Which class does COC(=O)c1cccc(-c2ncc(C(=O)NC3CCN(CC(F)(F)F)CC3)cn2)c1 [Example 125] fall in?
top range

###

System tested: human recombinant H-PGDS (Homo sapiens, UniProt O60760)
Sequence (O60760 whole entry): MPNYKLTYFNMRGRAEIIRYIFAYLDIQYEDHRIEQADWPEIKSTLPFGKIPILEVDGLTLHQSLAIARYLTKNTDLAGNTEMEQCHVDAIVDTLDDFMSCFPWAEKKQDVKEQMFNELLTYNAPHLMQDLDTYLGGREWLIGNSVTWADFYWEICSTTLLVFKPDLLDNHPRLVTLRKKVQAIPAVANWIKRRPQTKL
Test description: Fluoresecence Intensity h-PGDSTBA Enzyme Assay
Assay conditions: IC50, 5.0 μM PGH2, 2.5 mM L-Glutathione, 10 min preincubation, 4-parameter fit, highest inhibitor concentration typically 1 μM
Measurement type: IC50 (nM)
Numbers only here, please. The scale is nM.

IC50 lookup needed for `O=C(NC1CCN(Cc2ccc(OC(F)(F)F)cc2)CC1)c1cnc(-c2cccc(F)c2)nc1` , thanks.
4.54

What value of measured IC50 is listed for `COc1cccc(OC)c1CN1CCC(NC(=O)c2cnc(-c3ccccc3)nc2N)CC1` ?
19.3

Any idea what its IC50 is? The compound is `CS(=O)(=O)Nc1cccc(-c2ncc(C(=O)NC3CCN(Cc4ccccn4)CC3)cn2)c1`
2700

Returns the measured IC50 for the input compound. Input: O=C(N[C@@H]1CN(c2ncccn2)C[C@@H]1O)c1cnc(-c2cccc(F)c2)nc1 (relative stereo)
1.82

Report IC50 for O=C(NC1CCN(Cc2ccccc2C(F)(F)F)C1=O)c1cnc(-c2cccc(F)c2)nc1 (centres unmarked) please.
0.987

Fill blank: measured IC50 of the compound CC(C)(C)OC(=O)N1C[C@H](O)[C@H](NC(=O)c2cnc(-c3cccc(F)c3)nc2)C1 (relative stereo) is ____.
1.41

Entry CN1CCc2nc(N3CCC(NC(=O)c4cnc(-c5cccc(F)c5)nc4)C3)ncc2C1 (centres unmarked) has what IC50?
0.379

###

System tested: human recombinant H-PGDS (Homo sapiens)
Test description: Fluoresecence Intensity h-PGDSTBA Enzyme Assay
Assay conditions: IC50, 5.0 μM PGH2, 2.5 mM L-Glutathione, 10 min preincubation, 4-parameter fit, highest inhibitor concentration typically 1 μM
Consider the following compounds; for each one, report its pIC50.
Note on pIC50: it is the negative log10 of concentration, concentration in mol/L.

Which pIC50 value belongs to Cc1ccc(F)c(OCC(c2ccccc2)N2CCC(NC(=O)c3cnc(-c4cccc(F)c4)nc3)CC2)c1 (stereo not drawn) ?
8.09

For O=C(NC1CCN(c2ncc3c(n2)CCOC3)C1)c1cnc(-c2cccc(F)c2)nc1 (stereo not drawn) [Example 81] , what is its reported pIC50?
9.66

pIC50 for O=C(NC1CCN(C(COc2c(F)ccc(Cl)c2F)c2ccccc2)CC1)c1cnc(-c2cccc(F)c2)nc1 (stereo not drawn) ?
7.81

So what's the measured pIC50 for this one? `O=C(N[C@@H]1CCN(Cc2ccccc2)C1)c1cnc(-c2cccc(F)c2)nc1`
9.46

Return reported pIC50; argument: O=C(NC1CCN(C(COc2c(F)cccc2Cl)c2ccccc2)CC1)c1cnc(-c2cccc(F)c2)nc1 (stereo not drawn)
7.94

Report pIC50 for `Cc1nc(-c2ccccc2)ncc1C(=O)NC1CCN(Cc2ccccn2)CC1` please.
7.85

Which pIC50 value belongs to `O=C(NC1CCN(Cc2ccc(C(F)(F)F)c(F)c2)CC1)c1cnc(-c2cccc(F)c2)nc1` ?
8.15

Fill blank: measured pIC50 of the compound `O=C(NC1CCN(c2ccc(C(=O)N3CCOCC3)cn2)CC1)c1cnc(-c2cc(F)ccc2F)nc1` is ____.
7.74

Need pIC50, item `CC(C)(C)OC(=O)N1C[C@@H]2[C@H](C1)[C@H]2NC(=O)c1cnc(-c2cccc(F)c2)nc1`
9.45

Would you mind telling me what pIC50 value was observed for `CCCN1CCC(NC(=O)c2cnc(-c3ccccc3)nc2)CC1` ?
8.70

Endpoint output: pIC50 of `O=C(NC1CCN(Cc2ccccn2)CC1)c1cnc(-c2ccccc2)nc1` . Value?
9.34

Fill blank: measured pIC50 of the compound CCOC(=O)N1CCC(NC(=O)c2cnc(-c3cccc(F)c3)nc2)C1 (single isomer, unassigned) [Example 82a] is ____.
8.72

# pIC50 lookup, item CCCCOCCCN1CCC(NC(=O)c2cnc(-c3cccc(F)c3)nc2)C1=O (stereo not drawn)
8.55

Any idea what its pIC50 is? The compound is `O=C(NC1CCN(CC2CC2)CC1)c1cnc(-c2cccc(F)c2)nc1`
9.21

Entry `CCOC(=O)N1CCC(NC(=O)c2cnc(-c3ccccc3)nc2C)CC1` : reported pIC50 = ?
8.18

Item O=C(NC1CCN(c2ncc3c(n2)CCOC3)C1)c1cnc(-c2cccc(F)c2)nc1 (single isomer, unassigned) [Example 81b] has what recorded pIC50?
9.34

Can you share its pIC50? I mean this compound: `CCCC(=O)N1CCC(NC(=O)c2cnc(-c3ccccc3)nc2C)CC1`
8.10

Given the compound `CC(C)N1CCC(NC(=O)c2cnc(-c3ccccc3)nc2)CC1` , what is its reported pIC50?
8.20

Any idea what pIC50 was measured for CCC(C)N1CCC(NC(=O)c2cnc(-c3cccc(F)c3)nc2)CC1 (stereo not drawn) ?
8.44

Form field: reported pIC50 of O=C(NC1CCN(C(COc2c(F)cc(F)cc2F)c2ccccc2)CC1)c1cnc(-c2cccc(F)c2)nc1 (stereo not drawn)
8.05

Sample `CC(C)CN1CCC(NC(=O)c2cnc(-c3ccccc3)nc2)CC1` — what was its pIC50?
9.42

Quick check: pIC50 of O=C(NC1CCN(C(COc2cc(F)c(F)c(F)c2)c2ccccc2)CC1)c1cnc(-c2cccc(F)c2)nc1 (stereo not drawn) ?
8.02

Suppose we examine the compound `Cc1cc(C)c(C#N)c(N2CC(NC(=O)c3cnc(-c4cccc(F)c4)nc3)C2)n1` ; what pIC50 value has been reported?
9.09

Which pIC50 is listed for `CCCCN1CCC(NC(=O)c2cnc(-c3cccc(F)c3)nc2)CC1` ?
9.24

Quick one: pIC50 of `CC(=O)c1cccc(-c2ncc(C(=O)NC3CCN(C(=O)C(C)(C)C)CC3)cn2)c1` ?
7.19

I have this compound here, `CC(C)(C)C(=O)N1CC(NC(=O)c2cnc(-c3cccc(F)c3)nc2)C1` , and I need its recorded pIC50.
8.53

// returns reported pIC50 for input O=C(NC1CCN(Cc2c(F)ccc(F)c2Cl)C1=O)c1cnc(-c2cccc(F)c2)nc1 (stereo not drawn)
8.63

Would you mind telling me what pIC50 value was observed for `CC(=O)N1CC[C@@H](NC(=O)c2cnc(-c3cccc(F)c3)nc2)C1` ?
8.80

Which pIC50 is reported for this compound? O=C(NC1CCN(C(COc2cc(F)ccc2F)c2ccccc2)CC1)c1cnc(-c2cccc(F)c2)nc1 (stereo not drawn)
8.00

Entry N#Cc1ccc(OCC(c2ccccc2)N2CCC(NC(=O)c3cnc(-c4cccc(F)c4)nc3)CC2)cc1F (stereo not drawn) has what pIC50?
8.35
